B1: glmS ribozyme (parent)
chain: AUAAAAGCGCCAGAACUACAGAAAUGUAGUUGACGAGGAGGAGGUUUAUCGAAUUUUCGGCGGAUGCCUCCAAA

Variants of: B1
ASSAY_COMMENT: self-cleavage kobs at 640 uM GlcN6P; higher = faster cleavage; RNA array
REPORTED_CONDITIONS: with glucosamine-6-phosphate
Fewer inactive variants are shown than the library holds.
MEASUREMENT_TYPE: self-cleavage kobs at 640 uM GlcN6P

Past entries and their recorded results:
INPUT_SEQUENCE	self-cleavage kobs at 640 uM GlcN6P
AUAAAAGCGCCAGAACUACAGAAAUGUAUUUGACGAGGAGCUGGUUUAUCGAAUUUUCGGCGUAUGCCUCCAAA	< 1e-05 s⁻¹
AUAAAAGCGCCCGAACUACAGAAAUGUAGUUGACGAGGAGGAGGUUUCUCGAAUUUUCGGCGGAUGCCUCCAAA	3.34e-05 s⁻¹
AUAAAAGCGCCAGAACUACAGAAAUGUAGUUGACGAGGAGCAGGUUUUUCGAAUUUUCGGCGGAUGCCUCCAAA	< 1e-05 s⁻¹
AUAAAAGCGCCAGGAUUACAGAAAUGUAGUUGACGAGGAGGAAGUUUAUCGAAUUUUCGGCGGAUGGCUCCAAA	0.000459 s⁻¹
AUAAAAGCGGCAGAACUACAGAAAUGUAGUUGACAAGGAGGAGGUUUAUCGAAUUUUCGGCGGAUGCCUCCAAA	< 1e-05 s⁻¹

List the reported self-cleavage kobs at 640 uM GlcN6P of each variant below.
1. AUAAAAGCGCAAGAACUACAGAAAUGUAGUUGACGAGGCGGAGGUUUAUCGAAUUUUCGGCGGAUGCCUGCAAA
2. AUAAAAGCGCCAGAACUACAGAAAUGUAGUUGACGAGGAGGAGGUUUAUAGAAUUUUCAGCGGAUGCCUCCAAA
3. AUAAAAGCGCAAGAGCUACAGAAAUGUAGUUGACGAGGAGGAGGUUUAUCGAAUUUUCGGCGGAUGCCGCCAAA
4. AUAAAAGCGCCGGAACUACAGAAAUGUAGUUGACAAGGAGGAGGUUUAUCGAAUUUUCGGCGGAUGCCUCCAAA
5. AUAAAAGCGCCAGAACUACAGAAAUGUAGUUGACGAAGAUGACGUUUAUCGAAUUUUCGGCGGAUGCCUCCAAA
6. AUAAAAGCGCCAGAACUACAGAAAUGUAGUUGACGAGGCGGAGGUUUAUCGAAUUCUCGGCGGAUGCCUCCAAA

Ans:
1. < 1e-05 s⁻¹
2. < 1e-05 s⁻¹
3. 0.000293 s⁻¹
4. < 1e-05 s⁻¹
5. < 1e-05 s⁻¹
6. 0.00018 s⁻¹
